These data points were gathered from patent US20210121406A1.

Listed next: entries and their corresponding pIC50.
- Assayed target: T1, biotinylated His-Avi hu TSLP (human, UniProt Q969D9 29-159, biotinylated (site not stated))
- T1 construct: also called biotinylated TSLP; not shown: His-Avi tag
- Procedure text: HTRF competition; competitor DyLight-labelled tezepelumab
Lab note — pIC50 values are minus log10 of concentrations in M.

// known answers, use as guide
For the binder shown here, Fab4 (Fab, V domains shown, Only the changed VH is printed) VH: QMQLVESGGGVVQPGRSLRLSCAASGFTFRTYGMHWVRQAPGKGLEWVAVIWYDGSNKHYAESVKGRFTITRDNSKNTLNLQMNSLRAEDTAVYYCARAPQWELVHEAFDIWGQGTMVTVSS VL: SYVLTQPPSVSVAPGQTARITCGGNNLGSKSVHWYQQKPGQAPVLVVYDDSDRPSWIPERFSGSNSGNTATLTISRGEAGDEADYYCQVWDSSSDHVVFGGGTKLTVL , give the reported pIC50.
9.44

And the next one, Fab6 (Fab, V domains shown, Only the changed VL is printed) VH: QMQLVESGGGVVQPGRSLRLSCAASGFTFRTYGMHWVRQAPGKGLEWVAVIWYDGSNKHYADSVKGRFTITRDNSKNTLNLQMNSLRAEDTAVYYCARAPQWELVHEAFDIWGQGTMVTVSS VL: SYVLTQPPSVSVAPGQTARITCGGQNLGSKSVHWYQQKPGQAPVLVVYDDSDRPSWIPERFSGSNSGNTATLTISRGEAGDEADYYCQVWDSSSDHVVFGGGTKLTVL ?
9.49

Others:
For the binder shown here, Fab9 (Fab, V domains shown, Only the changed VL is printed) VH: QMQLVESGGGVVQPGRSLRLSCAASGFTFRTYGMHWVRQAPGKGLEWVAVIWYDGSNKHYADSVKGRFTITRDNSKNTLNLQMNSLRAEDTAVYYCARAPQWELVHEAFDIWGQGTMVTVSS VL: SYVLTQPPSVSVAPGQTARITCGGNNLGSKSVHWYQQKPGQAPVLVVYDDSDRPSWIPERFSGSNSGNTATLTISRGEAGDEADYYCQVWDSTSDHVVFGGGTKLTVL , give the reported pIC50.
9.54
